Assay System: Putative P2Y purinoceptor 10 (Mus musculus, UniProt Q8BFU7)
Sequence (Q8BFU7 whole entry): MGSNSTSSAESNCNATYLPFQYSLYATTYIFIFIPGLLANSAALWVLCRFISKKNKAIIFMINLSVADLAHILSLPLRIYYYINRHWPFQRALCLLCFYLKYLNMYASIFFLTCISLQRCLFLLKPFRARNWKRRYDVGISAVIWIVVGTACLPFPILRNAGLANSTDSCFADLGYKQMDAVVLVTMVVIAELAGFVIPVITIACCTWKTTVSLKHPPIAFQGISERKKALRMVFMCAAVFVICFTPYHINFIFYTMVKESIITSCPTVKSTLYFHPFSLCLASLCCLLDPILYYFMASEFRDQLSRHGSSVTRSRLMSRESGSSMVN
Experiment Summary: Agonist activity at mouse LPS2/P2Y10 transfected in HEK293-A cells co-transfected with AP-TGFalpha assessed as AP-TGFalpha release by TGFalpha shedding assay
Format: functional, cell-based
Study Conditions: read-out: EC50
pEC50: −log10 of the molar value.
Criterion: pEC50 meeting or surpassing 7. Met: T. Not met: F.

| Chemical String | Assay System | Category |
| --- | --- | --- |
| CC(C)(C)c1cccc(Oc2ccccc2CCC(=O)OCCCOP(=O)(O)OC[C@H](N)C(=O)O)c1 | Putative P2Y purinoceptor 10 (Mus musculus, UniProt Q8BFU7) | F |
| Nc1ccc(Oc2ccccc2CCC(=O)OCCCOP(=O)(O)OC[C@H](N)C(=O)O)cc1 | Putative P2Y purinoceptor 10 (Mus musculus, UniProt Q8BFU7) | T |
| Cc1ccc(-c2ccc(Oc3ccccc3CCC(=O)OCCCOP(=O)(O)OC[C@H](N)C(=O)O)cc2)cc1 | Putative P2Y purinoceptor 10 (Mus musculus, UniProt Q8BFU7) | T |
| Cc1cccc(COc2ccccc2CCC(=O)OCCCOP(=O)(O)OC[C@H](N)C(=O)O)c1 | Putative P2Y purinoceptor 10 (Mus musculus, UniProt Q8BFU7) | F |

Does pEC50 meet or surpass 7 for `CCc1ccccc1-c1ccc(Oc2ccccc2CCC(=O)OCCCOP(=O)(O)OC[C@H](N)C(=O)O)cc1` ?
T

Does pEC50 meet or surpass 7 for `CCCCCCOc1cccc(COc2ccccc2CCC(=O)OCCCOP(=O)(O)OC[C@H](N)C(N)=O)c1` ?
T

Does pEC50 meet or surpass 7 for `N[C@@H](COP(=O)(O)OCCCOC(=O)CC(=O)Cc1ccccc1Oc1ccc(-c2ccccc2)cc1)C(=O)O` ?
T

Does pEC50 meet or surpass 7 for `CCc1ccccc1Oc1ccccc1CCC(=O)OCCCOP(=O)(O)OC[C@H](N)C(=O)O` ?
F

Does pEC50 meet or surpass 7 for `CCCCCCCCCCCOc1ccccc1CCC(=O)OCCCOP(=O)(O)OC[C@H](N)C(N)=O` ?
T

---

Assay System: Putative P2Y purinoceptor 10 (Mus musculus)
Experiment Summary: Agonist activity at mouse LPS2/P2Y10 transfected in HEK293-A cells co-transfected with AP-TGFalpha assessed as AP-TGFalpha release by TGFalpha shedding assay relative to LysoPS
Type: functional, cell-based
Study Conditions: filed as agonist
Emax values, listed per item

| Chemical String | Recorded Measurement |
| --- | --- |
| Cc1ccc(-c2ccc(Oc3ccccc3CCC(=O)OCCCOP(=O)(O)OC[C@H](N)C(=O)O)cc2)cc1 | 108% |
| N[C@@H](COP(=O)(O)OCCCOC(=O)CCc1ccccc1Oc1ccc(C23C[C@H]4C[C@@H](C2)C[C@@H](C3)C4)cc1)C(=O)O | 107% |
| N[C@@H](COP(=O)(O)OCCCOC(=O)CCc1ccccc1Oc1ccccc1-c1ccccc1)C(=O)O | 105% |

Now for another entry.
What value of Emax has been recorded for this entry: `N[C@@H](COP(=O)(O)OCCCOC(=O)CCc1ccccc1Oc1ccc(-c2ccccc2-c2ccccc2)cc1)C(=O)O`
87%

---

EC50 values, listed per item
Assay System: Putative P2Y purinoceptor 10 (Mus musculus)
Experiment Summary: Agonist activity at mouse LPS2/P2Y10 transfected in HEK293-A cells co-transfected with AP-TGFalpha assessed as AP-TGFalpha release by TGFalpha shedding assay
Type: functional, cell-based
Study Conditions: read-out: pEC50 (converted)

Consider the worked cases shown below.
| Chemical String | Recorded Measurement |
| --- | --- |
| N[C@@H](COP(=O)(O)OCCCOC(=O)CCc1ccccc1Oc1ccc(O)cc1)C(=O)O | < 3.16 µM |
| N[C@@H](COP(=O)(O)OCCCOC(=O)CCc1ccccc1OCc1cccc(Oc2ccccc2)c1)C(=O)O | 0.0933 µM |
| N[C@@H](COP(=O)(O)OCCCOC(=O)CC(=O)Cc1ccccc1Oc1ccc(-c2ccccc2)cc1)C(=O)O | 1.07 µM |
| N[C@@H](COP(=O)(O)OCCOC(=O)CC(=O)Cc1ccccc1Oc1ccc(-c2ccccc2)cc1)C(=O)O | 6.03 µM |
| N#Cc1ccc(Oc2ccccc2CCC(=O)OCCCOP(=O)(O)OC[C@H](N)C(=O)O)cc1 | < 3.16 µM |

Now for another entry.
What value of EC50 has been recorded for this entry: `Nc1ccc(Oc2ccccc2CCC(=O)OCCCOP(=O)(O)OC[C@H](N)C(=O)O)cc1`
1.58 µM

Measured values drawn from ChEMBL document CHEMBL5360551 for this set.
